Data provenance: patent US20200276174A1

# Test system: AML cell lines (OCI-AML3, U937, Molm-13, MV4-11)
# experiment: 72-hour viability assay using CellTiter-Glo, single agents in AML cell lines
# Type: cell-based
# test-settings: 72 h, read-out: single agent IC50 values
measurement-name: IC50

1. COc1cccc2c1C(=O)c1c(O)c3c(c(O)c1C2=O)C[C@@](O)(C(C)=O)C[C@@H]3O[C@H]1C[C@H](N)[C@H](O)[C@H](C)O1 : 2.2 to 567 nM

* * *

# Tested on: AML cell lines (OCI-AML3, U937, Molm-13, MV4-11)
# experiment: 72-hour viability assay using CellTiter-Glo, single agents in AML cell lines
# Assay type: cell-based
# test-settings: 72-hour viability, CellTiter-Glo; one range printed for all three agents over OCI-AML3, U937, Molm-13, MV4-11; read-out: single agent IC50 values
# Method: (A) OCI-AML3, (B) U937, (C) Molm-13, and (D) MV4-11 cells were treated with alvocidib, cytarabine, or daunorubicin, as single agents, in viability assays using CellTiter-Glo according to manufacturer protocol.
pIC50: −log10 of the molar value.
measurement-name: pIC50

1) Nc1ccn([C@@H]2O[C@H](CO)[C@@H](O)[C@@H]2O)c(=O)n1 : 6.25 to 8.66
2) CN1CC[C@H](c2c(O)cc(O)c3c(=O)cc(-c4ccccc4Cl)oc23)[C@H](O)C1 : 6.25 to 8.66
